# pIC50 against 5-hydroxytryptamine receptor 2A (Rattus norvegicus), merged from multiple literature sources
# Sequence (P14842 whole entry): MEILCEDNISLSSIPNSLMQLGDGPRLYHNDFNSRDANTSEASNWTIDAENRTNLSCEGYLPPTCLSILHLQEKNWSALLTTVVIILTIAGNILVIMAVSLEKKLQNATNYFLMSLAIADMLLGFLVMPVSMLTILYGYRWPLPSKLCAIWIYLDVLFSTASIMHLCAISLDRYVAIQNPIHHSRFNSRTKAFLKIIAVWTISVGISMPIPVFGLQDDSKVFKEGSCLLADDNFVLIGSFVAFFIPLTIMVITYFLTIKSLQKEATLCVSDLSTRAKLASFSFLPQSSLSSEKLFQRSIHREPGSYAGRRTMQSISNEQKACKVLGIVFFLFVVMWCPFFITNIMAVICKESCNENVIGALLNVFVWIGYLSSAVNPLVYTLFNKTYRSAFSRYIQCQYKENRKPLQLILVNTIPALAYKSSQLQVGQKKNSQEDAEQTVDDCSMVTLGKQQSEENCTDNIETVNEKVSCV
// field semantics: pIC50 = negative decimal log of concentration (mol/L)

Here are 5 compounds together with their reported answers.
COc1cccc2c1CCCC2CCCN1CCN(c2ccccn2)CC1 (stereo unspecified) = 6.60
COCc1coc2cc(OCCCN3CCC(c4noc5cc(F)ccc45)CC3)ccc2c1=O = 8.85
COc1ccc2c(c1)C=C(CCN1CCN(c3ccccc3)CC1)CC2 = 6.97
CN(CCCN1CCC(C(=O)c2ccc(F)cc2)CC1)C(=O)c1noc2ccccc12 = 6.91
COc1ccc2c(c1)CC(CCN1CCN(c3ccccc3)CC1)CC2 (stereo unspecified) = 6.64

Now examine the next entry.
Reported pIC50 for COc1ccccc1N1CCN(CCNC(=O)c2noc3ccccc23)CC1 : what is it?
6.41

* * *

# pIC50 against UniProtKB P14842, merged from multiple literature sources
// field semantics: pIC50 = negative decimal log of concentration (mol/L)

Here are 4 molecules together with their reported answers.
COc1cccc(N2CCN(Cc3cn(-c4ccccc4)c(-c4ccccc4)n3)CC2)c1 = 5.63
COc1ccc2c(c1)CCC(CCN1CCN(c3ccccc3)CC1)=C2 = 7.25
O=c1c(CO)coc2cc(OCCCN3CCC(c4noc5cc(F)ccc45)CC3)ccc12 = 8.21
CN(CCCCN1CCC(C(=O)c2ccc(F)cc2)CC1)C(=O)c1nsc2ccccc12 = 7.52

Reported pIC50 for COc1ccc2c(c1)CCC(CCN1CCN(c3ccccc3)CC1)C2 (stereo unspecified) : what is it?
7.07

Also CC(C)N(CCN1CCC(c2noc3cc(F)ccc23)CC1)C(=O)c1noc2ccccc12 , if possible.
7.53

* * *

# IC50 against UniProt P14842, merged from multiple literature sources

COc1ccccc1N1CCN(CCCCNC(=O)c2nsc3ccccc23)CC1 = 724 nM

What is its IC50 for UniProt P14842? Entry: CCOc1ccccc1N1CCN(Cc2cn(-c3ccccc3)c(-c3ccccc3)n2)CC1
172 nM

Also CCC1(NC2=NCCNC(c3ccc(F)cc3F)=C2)CCCC1 , if possible.
2.3 nM

Also N#Cc1ccc(OC(c2ccc(F)cc2)C2CCCNC2)cc1 (stereo unspecified) , if possible.
> 1000 nM

Also Oc1cc2c(cc1O)CN(CCC(Oc1ccccc1F)c1ccccc1)CC2 (stereo unspecified) , if possible.
> 1000 nM

Also Ic1ccc(OC(c2ccccc2)C2CCNCC2)cc1 (stereo unspecified) , if possible.
> 1000 nM

* * *

# log10 of IC50 against UniProt P14842, merged from multiple literature sources
For clarity, the numbers are log10 values of IC50 expressed in nM.

Here are 4 compounds together with their reported answers.
COc1ccc2c(c1)C(N1CCN(C)CC1)=Nc1ccccc1N2 = 1.08
N#CNC(=NCCCN1CCN(c2cccc(Cl)c2)CC1)c1ccccn1 = -3.60
CN1CCN(C2=Nc3ccccc3Nc3ccc(O)cc32)CC1 = 1.54
COc1ccccc1N1CCN(CCCNC(=O)c2nsc3ccccc23)CC1 = 3.49

Now examine the next entry.
Reported log10 of IC50 for O=C(NCCN1CCN(c2nsc3ccccc23)CC1)c1nsc2ccccc12 : what is it?
2.68
